test system: Staphylococcus aureus ATCC 29213; test: Antibacterial susceptibility testing: IC90 determination (STA); format: cell-based; conditions: STA ATCC 29213, 90% inhibitory concentration for bacterial growth
measurementType: STA (361.159) IC90 (µg/mL)
The reply should contain only the number, in µg/mL.

Worked cases, answers included:
INSERT INTO assay_data (compound, measurementtype, experimentalresult) VALUES
  ('O=C1CCc2cc(/C=C/C(=O)N3CC4C=C(c5ccccc5Cl)CC4C3)cnc2N1 (stereo not shown)', 'STA (361.159) IC90', 0.33),
  ('Cn1nccc1C1=CC2CN(C(=O)/C=C/c3cnc4c(c3)CCC(=O)N4)CC2C1 (stereo not shown)', 'STA (361.159) IC90', 0.74),
  ('O=C1CCc2cc(/C=C/C(=O)N3C[C@@H]4CN(c5ccccc5Cl)C[C@@H]4C3)cnc2N1', 'STA (361.159) IC90', 0.21),
  ('O=C1CCc2cc(/C=C/C(=O)N3CC4C=C(c5cccnc5)CC4C3)cnc2N1 (racemic)', 'STA (361.159) IC90', 1.11),
  ('O=C1CCc2cc(/C=C/C(=O)N3CC4C=C(c5ccncc5)CC4C3)cnc2N1 (stereo not shown)', 'STA (361.159) IC90', 0.33);

Q. Recorded STA (361.159) IC90 for O=C1CCc2cc(/C=C/C(=O)N3CC4C=C(c5ccco5)CC4C3)cnc2N1 (stereo not shown) , please?
A. 0.18

Q. Recorded STA (361.159) IC90 for `COc1ccccc1N1C[C@H]2CN(C(=O)/C=C/c3cnc4c(c3)CCC(=O)N4)C[C@H]2C1` , please?
A. 1.15

Q. Recorded STA (361.159) IC90 for O=C1CCc2cc(/C=C/C(=O)N3CC4C=C(c5cccs5)CC4C3)cnc2N1 (stereo not shown) , please?
A. 0.03

Q. Recorded STA (361.159) IC90 for O=C1CCc2cc(/C=C/C(=O)N3CC4C=C(c5ccccc5F)CC4C3)cnc2N1 (stereo not shown) , please?
A. 0.13

Q. Recorded STA (361.159) IC90 for O=C1CCc2cc(/C=C/C(=O)N3C[C@H]4CC(c5ccccc5)=C[C@H]4C3)cnc2N1 (single isomer, unassigned) , please?
A. 0.31

All figures here come from patent US9617262B2.
